ASSAY INFO: Clearance in dog at 0.5 mg/kg, iv
Format: ADME, organism-based, Canis lupus familiaris
APPLIED CONDITIONS: in vivo
TEST READOUT: clearance (mL/min/kg)

{"columns": ["COMPOUND", "TEST READOUT", "OBSERVED MEASUREMENT"],
 "data": [
  ["CC#C[C@]1(O)CC[C@H]2[C@@H]3CCC4=CC(=O)CC[C@]4(C)[C@H]3[C@@H](c3ccc(N(C)C)cc3)C[C@@]21C", "clearance", 10.2]
]}

---

MEASUREMENT TARGET: UniProtKB P10275
ASSAY INFO: Agonist activity at human androgen receptor in human LNCAP cells harboring firefly luciferase gene after 20 hrs by One-Glo luciferase reporter gene assay
Listing: EC50 of selected compounds
TEST READOUT: EC50

{"columns": ["COMPOUND", "MEASUREMENT TARGET", "OBSERVED MEASUREMENT"],
 "data": [
  ["CC#C[C@]1(O)CC[C@H]2[C@@H]3CCC4=CC(=O)CC[C@]4(C)[C@H]3[C@@H](OCc3ccc(Cl)cc3)C[C@@]21C", "UniProtKB P10275", "1890 nM"],
  ["CN(C)c1ccc([C@H]2C[C@@]3(C)[C@@H](CC[C@@]3(O)C#CC(C)(C)C)[C@@H]3CCC4=CC(=O)CC[C@]4(C)[C@H]32)cc1", "UniProtKB P10275", "> 2500 nM"],
  ["CC#C[C@]1(O)CC[C@H]2[C@@H]3CCC4=CC(=O)CC[C@]4(C)[C@H]3[C@@H](c3ccc(OC)cc3)C[C@@]21C", "UniProtKB P10275", "> 2500 nM"],
  ["CCC(C)(C)C#C[C@]1(O)CC[C@H]2[C@@H]3CCC4=CC(=O)CC[C@@H]4[C@H]3[C@@H](c3ccc(N(C)C)cc3)C[C@@]21C", "UniProtKB P10275", "> 2500 nM"],
  ["CCC#C[C@]1(O)CC[C@H]2[C@@H]3CCC4=CC(=O)CC[C@]4(C)[C@H]3[C@@H](c3ccc(N(C)C)cc3)C[C@@]21C", "UniProtKB P10275", "> 2500 nM"],
  ["CC(C)(C)C#C[C@]1(O)CC[C@H]2[C@@H]3CCC4=CC(=O)CC[C@@H]4[C@H]3[C@@H](c3ccc(N4CCN(S(C)(=O)=O)CC4)cc3)C[C@@]21C", "UniProtKB P10275", "> 2500 nM"]
]}

---

ASSAY INFO: Solubility of compound in fasted state simulated gastric fluid at pH 1.2
Assay type: physicochemical
Listing: solubility of selected molecules

{"columns": ["COMPOUND", "RESULT QUALIFIER", "solubility / µM"],
 "data": [
  ["CC#C[C@]1(O)CC[C@H]2[C@@H]3CCC4=CC(=O)CC[C@]4(C)[C@H]3[C@@H](c3ccc(N(C)C)cc3)C[C@@]21C", "=", 1130],
  ["CC#C[C@]1(O)CC[C@H]2[C@@H]3CCC4=CC(=O)CCC4=C3[C@@H](c3ccc(N(C)C)cc3)C[C@@]21C", ">", 1160]
]}

---

Listing: pIC50 of selected molecules
MEASUREMENT TARGET: UniProtKB P10275
ASSAY INFO: Antagonist activity at human androgen receptor in human LNCAP cells harboring firefly luciferase gene after 20 hrs by One-Glo luciferase reporter gene assay
pIC50: −log10 of the molar value.
TEST READOUT: pIC50

{"columns": ["COMPOUND", "TEST READOUT", "OBSERVED MEASUREMENT"],
 "data": [
  ["CC#C[C@]1(O)CC[C@H]2[C@@H]3CCC4=CC(=O)CC[C@]4(C)[C@H]3[C@@H](OCc3ccc(Cl)cc3)C[C@@]21C", "pIC50", 7.07],
  ["CCC#C[C@]1(O)CC[C@H]2[C@@H]3CCC4=CC(=O)CC[C@]4(C)[C@H]3[C@@H](c3ccc(N(C)C)cc3)C[C@@]21C", "pIC50", 5.53],
  ["CC(C)(C)C#C[C@]1(O)CC[C@H]2[C@@H]3CCC4=CC(=O)CC[C@@H]4[C@H]3[C@@H](c3ccc(N4CCOCC4)cc3)C[C@@]21C", "pIC50", 6.68]
]}

---

MEASUREMENT TARGET: UniProt:P06401
Sequence (P06401 whole entry): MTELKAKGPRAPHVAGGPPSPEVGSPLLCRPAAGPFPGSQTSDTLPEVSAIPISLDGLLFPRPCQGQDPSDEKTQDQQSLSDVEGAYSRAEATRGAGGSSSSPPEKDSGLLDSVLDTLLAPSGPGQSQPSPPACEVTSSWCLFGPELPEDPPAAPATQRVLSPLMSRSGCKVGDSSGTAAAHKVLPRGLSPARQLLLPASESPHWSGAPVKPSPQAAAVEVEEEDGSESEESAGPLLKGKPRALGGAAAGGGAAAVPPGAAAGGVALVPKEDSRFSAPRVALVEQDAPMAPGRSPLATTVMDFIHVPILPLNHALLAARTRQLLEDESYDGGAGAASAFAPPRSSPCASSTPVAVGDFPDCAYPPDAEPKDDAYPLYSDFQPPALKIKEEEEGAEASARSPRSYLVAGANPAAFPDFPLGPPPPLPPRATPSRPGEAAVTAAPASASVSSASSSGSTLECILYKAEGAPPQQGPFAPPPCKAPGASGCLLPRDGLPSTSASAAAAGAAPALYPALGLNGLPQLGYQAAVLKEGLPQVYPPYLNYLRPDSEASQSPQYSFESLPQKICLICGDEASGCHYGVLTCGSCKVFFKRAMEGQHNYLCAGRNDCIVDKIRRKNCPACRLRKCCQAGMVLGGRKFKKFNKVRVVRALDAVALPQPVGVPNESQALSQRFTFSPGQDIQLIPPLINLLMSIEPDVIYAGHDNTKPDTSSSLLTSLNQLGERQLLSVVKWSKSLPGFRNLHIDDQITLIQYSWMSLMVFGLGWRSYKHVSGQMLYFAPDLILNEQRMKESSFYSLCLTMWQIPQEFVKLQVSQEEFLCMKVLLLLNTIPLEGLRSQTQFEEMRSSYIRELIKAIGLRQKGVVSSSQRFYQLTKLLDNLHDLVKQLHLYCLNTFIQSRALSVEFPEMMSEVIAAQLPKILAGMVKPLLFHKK
ASSAY INFO: Antagonist activity at human progesterone receptor expressed in CHO-K1 cells harboring firefly luciferase gene after 20 hrs by One-Glo luciferase reporter gene assay
// NB: equality with 500 nM counts as no; only IC50 strictly below is yes

{"columns": ["COMPOUND", "ASSIGNED CLASS"],
 "data": [
  ["COCC#C[C@]1(O)CC[C@H]2[C@@H]3CCC4=CC(=O)CC[C@]4(C)[C@H]3[C@@H](c3ccc(N(C)C)cc3)C[C@@]21C", "no"],
  ["CC#C[C@]1(O)CC[C@H]2[C@@H]3CCC4=CC(=O)CC[C@]4(C)[C@H]3[C@@H](c3ccc(N(C)C(C)C)cc3)C[C@@]21C", "no"],
  ["CC#C[C@]1(O)CC[C@H]2[C@@H]3CCC4=CC(=O)CC[C@]4(C)[C@H]3[C@@H](OCc3ccc(Cl)cc3)C[C@@]21C", "yes"],
  ["CN(C)c1ccc([C@H]2C[C@@]3(C)[C@@H](CC[C@@]3(O)C#CC(C)(C)C)[C@@H]3CCC4=CC(=O)CC[C@]4(C)[C@H]32)cc1", "no"],
  ["CC#C[C@]1(O)CC[C@H]2[C@@H]3CCC4=CC(=O)CC[C@]4(C)[C@H]3[C@@H](c3ccc(OC)cc3)C[C@@]21C", "no"],
  ["CC(C)(C)C#C[C@]1(O)CC[C@H]2[C@@H]3CCC4=CC(=O)CC[C@@H]4[C@H]3[C@@H](c3ccc(N4CCOCC4)cc3)C[C@@]21C", "yes"]
]}

---

Listing: EC50 of selected compounds
MEASUREMENT TARGET: Androgen receptor (Homo sapiens, UniProt P10275)
Sequence (P10275 whole entry): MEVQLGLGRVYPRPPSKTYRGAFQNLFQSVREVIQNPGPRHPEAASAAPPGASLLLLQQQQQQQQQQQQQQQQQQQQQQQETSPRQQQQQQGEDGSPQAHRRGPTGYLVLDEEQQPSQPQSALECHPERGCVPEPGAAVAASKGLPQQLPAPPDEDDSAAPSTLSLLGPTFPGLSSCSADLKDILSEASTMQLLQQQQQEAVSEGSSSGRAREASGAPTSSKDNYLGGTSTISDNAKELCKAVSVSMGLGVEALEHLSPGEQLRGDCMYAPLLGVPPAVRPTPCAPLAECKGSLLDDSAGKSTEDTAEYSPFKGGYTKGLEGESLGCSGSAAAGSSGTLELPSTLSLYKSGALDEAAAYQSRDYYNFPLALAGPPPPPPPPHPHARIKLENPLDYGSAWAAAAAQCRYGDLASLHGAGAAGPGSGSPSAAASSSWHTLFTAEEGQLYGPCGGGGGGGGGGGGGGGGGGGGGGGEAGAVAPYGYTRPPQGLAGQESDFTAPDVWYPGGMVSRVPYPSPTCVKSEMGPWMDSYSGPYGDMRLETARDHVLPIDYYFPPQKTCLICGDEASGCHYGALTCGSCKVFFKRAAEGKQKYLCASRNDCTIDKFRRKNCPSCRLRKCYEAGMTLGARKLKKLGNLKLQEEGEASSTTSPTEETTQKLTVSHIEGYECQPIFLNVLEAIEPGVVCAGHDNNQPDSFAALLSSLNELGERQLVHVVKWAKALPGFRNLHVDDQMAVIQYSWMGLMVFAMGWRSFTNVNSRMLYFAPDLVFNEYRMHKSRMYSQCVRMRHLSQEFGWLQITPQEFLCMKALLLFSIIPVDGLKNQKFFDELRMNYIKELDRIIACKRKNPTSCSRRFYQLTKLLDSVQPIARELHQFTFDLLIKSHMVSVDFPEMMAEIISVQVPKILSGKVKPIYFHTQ
ASSAY INFO: Agonist activity at human androgen receptor in human LNCAP cells harboring firefly luciferase gene after 20 hrs by One-Glo luciferase reporter gene assay
Assay type: cell-based
TEST READOUT: EC50

{"columns": ["COMPOUND", "OBSERVED MEASUREMENT"],
 "data": [
  ["CN1CCN(c2ccc([C@H]3C[C@@]4(C)[C@@H](CC[C@@]4(O)C#CC(C)(C)C)[C@@H]4CCC5=CC(=O)CC[C@@H]5[C@H]43)cc2)CC1", "> 2500 nM"],
  ["CN(C)c1ccc([C@H]2C[C@@]3(C)[C@@H](CC[C@@]3(O)C#CC(F)(F)F)[C@@H]3CCC4=CC(=O)CC[C@]4(C)[C@H]32)cc1", "> 2500 nM"],
  ["CC#C[C@]1(O)CC[C@H]2[C@@H]3CCC4=CC(=O)CC[C@]4(C)[C@H]3[C@@H](c3ccc(N(C)CCOC)cc3)C[C@@]21C", "> 2500 nM"]
]}
